experiment: PK of compound of Formula (Ia) after single subcutaneous dose of solution formulations in Wistar Han rats; assay type: in vivo; details: male, Wistar Han, rat, plasma, sc, 50 mg/kg, mean ± SD, n = 3 rats; SC 50 mg/kg; solution S, 500 mg/mL; read-out: AUC0-1008 h
observationType: AUC(0-t)

Field request: AUC(0-t) | item: CC(C)(C#Cc1ccc(-c2ccc(Cl)c3c(NS(C)(=O)=O)nn(CC(F)(F)F)c23)c([C@H](Cc2cc(F)cc(F)c2)NC(=O)Cn2nc(C(F)(F)F)c3c2C(F)(F)[C@@H]2C[C@H]32)n1)S(C)(=O)=O
233 µM·h

---

experiment: PK of compound of Formula (Ia) after single subcutaneous dose of solution formulations in Wistar Han rats; format: in vivo; details: male, Wistar Han, rat, plasma, sc, 50 mg/kg, Wistar Han rats, SC 50 mg/kg, 500 mg/mL solution X (5.00% ethanol, 1.91% poloxamer 188), 3696 h, animals #1-#3
observationType: concentration at 3696 h (nM)
Answers are plain numbers, in nM.

Field request: concentration at 3696 h | item: CC(C)(C#Cc1ccc(-c2ccc(Cl)c3c(NS(C)(=O)=O)nn(CC(F)(F)F)c23)c([C@H](Cc2cc(F)cc(F)c2)NC(=O)Cn2nc(C(F)(F)F)c3c2C(F)(F)[C@@H]2C[C@H]32)n1)S(C)(=O)=O
121

---

test: PK of compound of Formula (Ia) after single subcutaneous dose of solution formulations in Wistar Han rats; assay type: in vivo; settings: male, Wistar Han, rat, plasma, sc, 50 mg/kg, Wistar Han rats, SC 50 mg/kg, 400 mg/mL solution Y (water, PEG 300), 672 h, Mean n = 4
observationType: concentration at 672 h (nM)
One number for each entry, in nM.

Field request: concentration at 672 h | item: CC(C)(C#Cc1ccc(-c2ccc(Cl)c3c(NS(C)(=O)=O)nn(CC(F)(F)F)c23)c([C@H](Cc2cc(F)cc(F)c2)NC(=O)Cn2nc(C(F)(F)F)c3c2C(F)(F)[C@@H]2C[C@H]32)n1)S(C)(=O)=O [compound of Formula (Ia)]
151

---

assay: PK of compound of Formula (Ia) after single subcutaneous dose of solution formulations in Wistar Han rats; assay type: in vivo; conditions: male, Wistar Han, rat, plasma, sc, 50 mg/kg, 5376 h; mean, n = 3 rats; SC 50 mg/kg; solution R, 400 mg/mL
observationType: concentration at 5376 h (µM)
Numbers only, in µM.

Field request: concentration at 5376 h | item: CC(C)(C#Cc1ccc(-c2ccc(Cl)c3c(NS(C)(=O)=O)nn(CC(F)(F)F)c23)c([C@H](Cc2cc(F)cc(F)c2)NC(=O)Cn2nc(C(F)(F)F)c3c2C(F)(F)[C@@H]2C[C@H]32)n1)S(C)(=O)=O [compound of Formula (Ia)]
0.058

---

assay: PK of compound of Formula (Ia) after single subcutaneous dose of solution formulations in Wistar Han rats; format: in vivo; details: male, Wistar Han, rat, plasma, sc, 50 mg/kg, Wistar Han rats, SC 50 mg/kg, 400 mg/mL solution Z (3.13% poloxamer 188), 2352 h, animals #1-#4
observationType: concentration at 2352 h (nM)
One number for each entry, in nM.

Field request: concentration at 2352 h | item: CC(C)(C#Cc1ccc(-c2ccc(Cl)c3c(NS(C)(=O)=O)nn(CC(F)(F)F)c23)c([C@H](Cc2cc(F)cc(F)c2)NC(=O)Cn2nc(C(F)(F)F)c3c2C(F)(F)[C@@H]2C[C@H]32)n1)S(C)(=O)=O
101

---

test: PK of compound of Formula (Ia) after single subcutaneous dose of solution formulations in Wistar Han rats; assay type: in vivo; conditions: male, Wistar Han, rat, plasma, sc, 50 mg/kg, Wistar Han rats, SC 50 mg/kg, 400 mg/mL solution W (5.00% ethanol, 1.57% poloxamer 188), 8.00 h, Mean n = 3
observationType: concentration at 8 h (nM)
Answers are plain numbers, in nM.

Field request: concentration at 8 h | item: CC(C)(C#Cc1ccc(-c2ccc(Cl)c3c(NS(C)(=O)=O)nn(CC(F)(F)F)c23)c([C@H](Cc2cc(F)cc(F)c2)NC(=O)Cn2nc(C(F)(F)F)c3c2C(F)(F)[C@@H]2C[C@H]32)n1)S(C)(=O)=O
76.9

---

assay: PK of compound of Formula (Ia) after single subcutaneous dose of solution formulations in Wistar Han rats; format: in vivo; conditions: male, Wistar Han, rat, plasma, sc, 50 mg/kg, mean ± SD, n = 5 rats; SC 50 mg/kg; solution T, 400 mg/mL; read-out: AUC0-168 h
observationType: AUC(0-t) (µM·h)
Give bare numbers, in µM·h.

Field request: AUC(0-t) | item: CC(C)(C#Cc1ccc(-c2ccc(Cl)c3c(NS(C)(=O)=O)nn(CC(F)(F)F)c23)c([C@H](Cc2cc(F)cc(F)c2)NC(=O)Cn2nc(C(F)(F)F)c3c2C(F)(F)[C@@H]2C[C@H]32)n1)S(C)(=O)=O [compound of Formula (Ia)]
40.6

---

Assay: PK of compound of Formula (Ia) after single subcutaneous dose of solution formulations in Wistar Han rats
Assay type: in vivo
Conditions: male, Wistar Han, rat, plasma, sc, 50 mg/kg, Wistar Han rats, SC 50 mg/kg, 400 mg/mL solution W (5.00% ethanol, 1.57% poloxamer 188), 96.0 h, animals #1-#3
Description: Formulations containing the compound of Formula (Ia), or a pharmaceutically acceptable salt thereof, were prepared as solutions and optionally administered subcutaneously or intramuscularly to rats, rabbits, and/or dogs. A solution of about 400 mg/mL of the compound of Formula (Ia) having 19.14 w/w % water, 40.66 w/w % PEG 300, 35.20 w/w % of a sodium salt of a compound of Formula (Ia), and 5.00% ethanol was prepared. […]
observationType: concentration at 96 h (nM)
Give bare numbers, in nM.

Field request: concentration at 96 h | item: CC(C)(C#Cc1ccc(-c2ccc(Cl)c3c(NS(C)(=O)=O)nn(CC(F)(F)F)c23)c([C@H](Cc2cc(F)cc(F)c2)NC(=O)Cn2nc(C(F)(F)F)c3c2C(F)(F)[C@@H]2C[C@H]32)n1)S(C)(=O)=O [compound of Formula (Ia)]
98.6

---

experiment: PK of compound of Formula (Ia) after single subcutaneous dose of solution formulations in Wistar Han rats; assay type: in vivo; conditions: male, Wistar Han, rat, plasma, sc, 50 mg/kg, mean ± SD, n = 5 rats; SC 50 mg/kg; solution U, 500 mg/mL; read-out: AUC0-24 h
observationType: AUC(0-t) (µM·h)
One number for each entry, in µM·h.

Field request: AUC(0-t) | item: CC(C)(C#Cc1ccc(-c2ccc(Cl)c3c(NS(C)(=O)=O)nn(CC(F)(F)F)c23)c([C@H](Cc2cc(F)cc(F)c2)NC(=O)Cn2nc(C(F)(F)F)c3c2C(F)(F)[C@@H]2C[C@H]32)n1)S(C)(=O)=O
3.74

---

assay: PK of compound of Formula (Ia) after single subcutaneous dose of solution formulations in Wistar Han rats; assay type: in vivo; details: male, Wistar Han, rat, plasma, sc, 50 mg/kg, mean ± SD, n = 3 rats; SC 50 mg/kg; solution S, 500 mg/mL; read-out: AUC0-3696 h
observationType: AUC(0-t) (µM·h)
Numbers only, in µM·h.

Field request: AUC(0-t) | item: CC(C)(C#Cc1ccc(-c2ccc(Cl)c3c(NS(C)(=O)=O)nn(CC(F)(F)F)c23)c([C@H](Cc2cc(F)cc(F)c2)NC(=O)Cn2nc(C(F)(F)F)c3c2C(F)(F)[C@@H]2C[C@H]32)n1)S(C)(=O)=O [compound of Formula (Ia)]
722

---

test: PK of compound of Formula (Ia) after single subcutaneous dose of solution formulations in beagle dogs; format: in vivo; conditions: male, beagle, dog, plasma, sc, 12 mg/kg, 96.0 h; individual dogs; SC 12 mg/kg; solution U, 500 mg/mL
observationType: concentration at 96 h (nM)
One number for each entry, in nM.

Field request: concentration at 96 h | item: CC(C)(C#Cc1ccc(-c2ccc(Cl)c3c(NS(C)(=O)=O)nn(CC(F)(F)F)c23)c([C@H](Cc2cc(F)cc(F)c2)NC(=O)Cn2nc(C(F)(F)F)c3c2C(F)(F)[C@@H]2C[C@H]32)n1)S(C)(=O)=O [compound of Formula (Ia)]
49

---

test: PK of compound of Formula (Ia) after single subcutaneous dose of solution formulations in Wistar Han rats; format: in vivo; settings: male, Wistar Han, rat, plasma, sc, 50 mg/kg, male Wistar Han rats, single SC 50 mg/kg, 500 mg/mL solution X (5.00% ethanol, 1.91% poloxamer 188), mean ± SD, n = 3; read-out: AUC0-1008 h
observationType: AUC(0-t)
Please append the unit to your numeric answer.

Field request: AUC(0-t) | item: CC(C)(C#Cc1ccc(-c2ccc(Cl)c3c(NS(C)(=O)=O)nn(CC(F)(F)F)c23)c([C@H](Cc2cc(F)cc(F)c2)NC(=O)Cn2nc(C(F)(F)F)c3c2C(F)(F)[C@@H]2C[C@H]32)n1)S(C)(=O)=O
244 µM·h
